assay: PSAC antagonists in infected red cells, primary screen, cell-based, P. falciparum Indochina, OD700, 1 h (AID 1154); details: P. falciparum Indochina infected RBC osmotic lysis, higher = more signal, called active from +8 up or from −8 down
measurement-type: z-score

[[record]]
compound = "COC(=O)[C@@]1(Cc2ccc(OC)cc2)[C@H]2c3cc(C(=O)N(C)C)n(Cc4ccccc4)c3C[C@H]2CN1C(=O)c1ccccc1"
reported = 0.49

[[record]]
compound = "COc1ccc([Si](C)(C)[C@H]2[C@H](CC(=O)N3Cc4ccccc4C[C@H]3CO)O[C@@]3(C(=O)N(Cc4cccc(N5CCCCC5=O)c4)c4ccccc43)[C@@H]2C)cc1"
reported = 3.41

[[record]]
compound = "CC(C)OC(=O)CC(=O)CC(O)c1cccc(C#N)c1 (centres undefined)"
reported = 1.65

[[record]]
compound = "O=C1O[C@@H](c2ccccc2)[C@@H](c2ccccc2)N2[C@@H](c3ccccc3OCCO)[C@]3(C(=O)Nc4ccc(C#CC5=CCCCC5)cc43)[C@@H](C(=O)NC[C@H](O)c3ccccc3)[C@H]12"
reported = 0.996

